- Tested on: CW-2 (Colorectal Carcinoma)
- ASSAY_METHOD_TEXT: combination Emax (second highest fraction inhibited in the dose matrix, 72 h); higher = more inhibition; extreme values may be limits of the assay
ATTRIBUTE_MEASURED: combination Emax
Just the number.

N#Cc1cnc(Nc2cc(NC[C@H]3CNCCO3)c(C(F)(F)F)cn2)cn1 [SRA737] + CCc1c2c(nc3ccc(O)cc13)-c1cc3c(c(=O)n1C2)COC(=O)[C@]3(O)CC [SN-38] (first compound max 10 µM, 7x7, partner max 0.3 µM) ... 0.625

For the next question, use this molecule.
Exercise: # combination Emax lookup, item NC1(C(=O)N[C@@H](CCO)c2ccc(Cl)cc2)CCN(c2ncnc3[nH]ccc23)CC1 [Capivasertib] + COc1nnc2ccc(N3CCC(c4ccc(OCCN5CCN(C)C(=O)[C@H]5C)cc4)CC3)nn12 [AZD5153] (first compound max 10 µM, 7x7, partner max 1 µM)
Key: 0.559
